Data provenance: patent US20260021103A1

# tested on: IKZF1 (Homo sapiens, UniProt Q13422+Q96SW2)
# Construct: expressed in transfected cells; host or cells: HEK293T (lentiviral transduction, puromycin selection, FACS sorting)
# Sequence (Q13422 whole entry): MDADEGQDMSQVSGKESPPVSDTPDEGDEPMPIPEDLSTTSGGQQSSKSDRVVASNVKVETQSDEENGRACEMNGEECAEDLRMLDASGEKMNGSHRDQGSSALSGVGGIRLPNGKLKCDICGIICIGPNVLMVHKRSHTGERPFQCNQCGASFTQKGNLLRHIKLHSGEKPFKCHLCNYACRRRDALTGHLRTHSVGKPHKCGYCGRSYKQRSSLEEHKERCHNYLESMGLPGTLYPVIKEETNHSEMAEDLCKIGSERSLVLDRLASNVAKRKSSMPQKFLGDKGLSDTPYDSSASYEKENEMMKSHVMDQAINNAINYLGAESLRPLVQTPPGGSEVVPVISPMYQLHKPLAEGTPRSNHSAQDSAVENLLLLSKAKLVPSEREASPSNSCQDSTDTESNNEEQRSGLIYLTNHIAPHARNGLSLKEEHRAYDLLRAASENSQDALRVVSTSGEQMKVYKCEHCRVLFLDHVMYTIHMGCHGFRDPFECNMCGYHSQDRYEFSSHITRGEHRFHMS
# Sequence (Q96SW2 whole entry): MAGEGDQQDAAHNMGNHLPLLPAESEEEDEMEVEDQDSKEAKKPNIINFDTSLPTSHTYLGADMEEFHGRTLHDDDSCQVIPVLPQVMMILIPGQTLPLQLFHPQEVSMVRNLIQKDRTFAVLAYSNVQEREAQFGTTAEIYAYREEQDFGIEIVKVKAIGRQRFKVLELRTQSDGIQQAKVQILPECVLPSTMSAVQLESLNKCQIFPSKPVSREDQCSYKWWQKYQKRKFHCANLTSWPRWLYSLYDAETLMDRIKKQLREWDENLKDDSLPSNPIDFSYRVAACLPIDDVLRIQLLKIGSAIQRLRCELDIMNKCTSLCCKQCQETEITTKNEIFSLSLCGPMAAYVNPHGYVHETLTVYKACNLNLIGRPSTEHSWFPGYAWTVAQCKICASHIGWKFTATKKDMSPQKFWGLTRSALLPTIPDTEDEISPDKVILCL
# Sequence (Q16531 whole entry partner): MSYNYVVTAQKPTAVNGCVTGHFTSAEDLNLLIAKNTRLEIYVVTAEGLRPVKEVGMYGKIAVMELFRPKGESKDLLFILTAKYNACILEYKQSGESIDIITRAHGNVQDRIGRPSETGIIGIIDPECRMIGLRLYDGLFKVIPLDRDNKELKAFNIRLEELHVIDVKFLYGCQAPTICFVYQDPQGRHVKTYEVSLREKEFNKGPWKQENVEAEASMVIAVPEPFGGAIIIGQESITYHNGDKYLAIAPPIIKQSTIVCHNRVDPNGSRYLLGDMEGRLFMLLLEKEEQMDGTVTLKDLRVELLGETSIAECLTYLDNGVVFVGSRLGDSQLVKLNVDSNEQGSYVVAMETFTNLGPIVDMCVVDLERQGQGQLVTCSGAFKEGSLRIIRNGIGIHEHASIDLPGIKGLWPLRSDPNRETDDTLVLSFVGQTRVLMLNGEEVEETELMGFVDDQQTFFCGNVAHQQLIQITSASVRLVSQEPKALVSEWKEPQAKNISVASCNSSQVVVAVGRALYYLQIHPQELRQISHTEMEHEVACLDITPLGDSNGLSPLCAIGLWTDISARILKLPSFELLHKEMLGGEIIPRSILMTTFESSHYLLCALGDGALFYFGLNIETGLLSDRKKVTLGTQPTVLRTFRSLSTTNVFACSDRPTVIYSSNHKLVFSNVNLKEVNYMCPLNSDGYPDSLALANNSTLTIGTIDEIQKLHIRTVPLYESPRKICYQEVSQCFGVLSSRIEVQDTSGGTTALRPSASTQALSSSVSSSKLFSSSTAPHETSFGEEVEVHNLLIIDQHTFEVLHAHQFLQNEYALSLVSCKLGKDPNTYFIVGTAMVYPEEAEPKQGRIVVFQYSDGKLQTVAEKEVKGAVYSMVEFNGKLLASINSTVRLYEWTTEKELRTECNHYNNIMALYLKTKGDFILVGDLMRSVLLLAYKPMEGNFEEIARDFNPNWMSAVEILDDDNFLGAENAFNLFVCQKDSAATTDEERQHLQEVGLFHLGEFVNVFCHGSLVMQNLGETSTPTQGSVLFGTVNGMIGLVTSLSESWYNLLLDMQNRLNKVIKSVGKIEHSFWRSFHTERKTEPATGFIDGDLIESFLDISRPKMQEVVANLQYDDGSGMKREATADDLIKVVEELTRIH
# experiment: Flow cytometry for measuring degradation, HEK293T GFP-POI reporter cells (IKZF1)
# Assay type: cell-based
# experimental context: 100 nM, 24 h, HEK293T GFP reporter
Measured IKZF1% degradation at 100 nM values are reported for all entries that follow.

IKZF1% degradation at 100 nM reading for N#Cc1ccc2cc(C(=O)Nc3ccc4c(c3)CN(C3CCC(=O)NC3=O)C4=O)ccc2c1 (stereo not shown) : 8.5%

IKZF1% degradation at 100 nM reading for O=C1CCC(N2Cc3cc(NC(=O)C4=Cc5cc(Br)cc(Br)c5OC4)ccc3C2=O)C(=O)N1 (stereo not shown) : 12.3 ± 0.9%

IKZF1% degradation at 100 nM reading for O=C1CCC(N2Cc3cc(NC(=O)c4ccc(Sc5ccccc5)cc4)ccc3C2=O)C(=O)N1 (stereo not shown) : 11.7 ± 0.3%

IKZF1% degradation at 100 nM reading for COc1ccc2c(c1)C=C(C(=O)Nc1ccc3c(c1)CN(C1CCC(=O)NC1=O)C3=O)CO2 (stereo not shown) : 15.7 ± 1.1%
